Please provide measured inhibition for the entries that follow.
# test.target: Rac GTPase-activating protein 1 (Homo sapiens) (UniProt Q9H0H5)
# Sequence (Q9H0H5 whole entry, looked up): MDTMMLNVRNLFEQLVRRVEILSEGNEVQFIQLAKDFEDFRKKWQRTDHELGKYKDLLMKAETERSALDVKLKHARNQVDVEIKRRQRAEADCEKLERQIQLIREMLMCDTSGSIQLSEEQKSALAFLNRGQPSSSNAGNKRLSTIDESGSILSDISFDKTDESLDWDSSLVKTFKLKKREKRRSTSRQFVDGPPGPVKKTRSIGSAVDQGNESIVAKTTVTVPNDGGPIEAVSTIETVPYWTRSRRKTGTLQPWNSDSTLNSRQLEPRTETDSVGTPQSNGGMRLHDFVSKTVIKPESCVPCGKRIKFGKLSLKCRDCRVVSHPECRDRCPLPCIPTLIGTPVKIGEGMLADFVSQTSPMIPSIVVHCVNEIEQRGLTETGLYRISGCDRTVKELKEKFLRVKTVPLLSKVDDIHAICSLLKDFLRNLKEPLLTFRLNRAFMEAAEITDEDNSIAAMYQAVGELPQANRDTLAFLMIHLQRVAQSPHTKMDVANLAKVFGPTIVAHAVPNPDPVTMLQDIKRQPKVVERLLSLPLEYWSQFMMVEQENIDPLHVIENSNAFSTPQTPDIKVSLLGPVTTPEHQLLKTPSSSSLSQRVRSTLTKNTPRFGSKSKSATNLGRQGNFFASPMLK
# test: blockers of MgcRacGAP-driven Rac1 GTP hydrolysis – biochemical, ADP Hunter fluorescence, primary and confirmatory, confirmation (AID 624330);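 note: fluorescence reports GDP produced by GAP-driven GTP hydrolysis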
# test.context: MgcRacGAP-stimulated Rac1 GTP hydrolysis, at 30 µM, active compounds read high, GST-tagged Rac1 F28L mutant substrate
In all, about 340,000 compounds went through this assay and about 2,100 (0.62%) were called active. A selection follows. Results with a measured potency or affinity are listed apart.
Numbers only, in %.

Give inhibition for each listed item.
1. CCCC(=O)Nc1ccc2c(c1)c1ccccc1n2CC
2. COc1ccccc1CC(=O)Nc1ccc2c(C)cc(=O)oc2c1

1. 10.5
2. 4.86

Give inhibition for each listed item.
1. COc1ccc(CNCc2ccc3ccccc3c2)c(OC)c1
2. CCn1c2ccccc2c2cc(NC(=O)CC(C)=O)ccc21
3. CCN(CC)c1ccc(N=Cc2cc(Br)ccc2O)cc1
4. CN(Cc1ccccc1)C(=O)C1CCCN(Cc2cccc(Cl)c2)C1 (stereo not given)
5. CCn1c2ccccc2c2cc(CNCCCN3CCOCC3)ccc21
6. Cn1c(SCC(=O)NCc2cccs2)nnc1-c1ccncc1
7. COC(=O)[C@H](C(C)C)N(Cc1ccccc1)S(=O)(=O)CCN1CCN(c2ccccc2)CC1

28.9
8.51
10.9
3.69
20.3
5.96
3.71

Give inhibition for each listed item.
1. CCn1c2ccccc2c2cc(NC(C)=O)ccc21
2. O=C(C1CCCN(Cc2ccc(Cl)cc2)C1)N1CCCCC1 (stereo not given)
3. OCC(CO)(CO)N=Cc1cc(Br)ccc1O
4. CCn1c2ccccc2c2cc(CC(N)=O)ccc21
5. Cc1cccc(C=Nc2ccc3c(c2)oc2ccccc23)c1O
6. Cn1cc(CN2CCCC(C(=O)c3nccn3C)C2)c(-c2cccc(Cl)c2)n1 (stereo not given)

1. 6.13
2. 24.9
3. 8.85
4. 8.07
5. 25.6
6. 0.46

Give inhibition for each listed item.
1. Oc1ccc(Cl)cc1/C=N/c1nccs1
2. CN1C(=O)CSC1=S
3. O=C(Nc1ccc(C(=O)O)cc1)/C(=C\c1ccco1)NC(=O)c1ccc(Br)cc1
4. COc1cccc(CN2CCCC(C(=O)N3CCCCC3)C2)c1 (stereo not given)
5. CCn1c2ccccc2c(=O)c2ccccc21
6. CCCOc1ccc(C(=O)Nc2ccc(N3CCN(C(=O)c4ccco4)CC3)cc2)cc1

3.22
6.82
18.2
22.1
5.08
3.27

Give inhibition for each listed item.
1. COc1ccc(CN2CCCC(C(=O)N3CCCCC3)C2)cc1 (stereo not given)
2. COc1ccc(CN2CCCC(C(=O)N(C)Cc3ccccc3)C2)cc1OC (stereo not given)
3. CCCN(CC(=O)Nc1ccc(F)c(F)c1F)C(=O)Cn1c(=O)cnc2ccccc21
4. C/C(=N\NC(=O)OC(C)(C)C)c1ccccc1Br

[26.1, 27.7, 5.6, -4.8]

====

# test.target: Rac GTPase-activating protein 1 (Homo sapiens)
# test: blockers of MgcRacGAP-driven Rac1 GTP hydrolysis – biochemical, ADP Hunter fluorescence, primary and confirmatory, confirmation (AID 624330);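 note: fluorescence reports GDP produced by GAP-driven GTP hydrolysis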
# test.context: MgcRacGAP-stimulated Rac1 GTP hydrolysis, at 30 µM, active compounds read high, GST-tagged Rac1 F28L mutant substrate
In all, about 340,000 compounds went through this assay and about 2,100 (0.62%) were called active. A selection follows. Results with a measured potency or affinity are listed apart.
result.type: inhibition (%)
Give bare numbers, in %.

• COc1ccc(CN2CCC(=O)N(CCO)CC2)cc1OC = 7.88
• CCCN1Cc2cccc(C(=O)NCCc3ccccc3)c2C1=O = 5.13
• CCNC(=S)N1C2CCC1CC(NC(=O)NC1CCCCC1)C2 (stereo unspecified) = 1.32

Give inhibition for each listed item.
1. COc1ccc(C(=O)Nc2c(C(C)(C)C)nn(C)c2C(C)(C)C)cc1
2. N#CC1=C(S)N(c2ccccc2)C(c2ccc(-c3cc(Cl)ccc3Cl)o2)NC1=O (stereo unspecified)
3. CCc1nnc(NS(=O)(=O)c2ccc(N=Cc3c(C)[nH]n(-c4cccc(Cl)c4)c3=O)cc2)s1
4. CSc1ccccc1NC(=O)CSc1n[nH]c(C)c1[N+](=O)[O-]
5. N#CC1=C(S)N(c2ccccc2)C(c2ccco2)NC1=O (stereo unspecified)
6. Nc1c(Cl)ncnc1N/N=C/c1cccc(O)c1
7. COc1ccc(C(=O)NCCc2nnc3ccc(SCC(=O)NCc4ccc(F)cc4)nn23)cc1

1. 10.2
2. 19.7
3. 9.47
4. 8.49
5. 1.78
6. -2.65
7. -0.6

Give inhibition for the following compound: COc1ccc(C2NC(=O)C(C#N)=C(S)N2c2ccccc2)cc1OC (stereo unspecified)
42.4
